Collected IC50 values appear next to each entry.
Molecular target: KDM5B (Homo sapiens, UniProt Q9UGL1)
Sequence (Q9UGL1 whole entry): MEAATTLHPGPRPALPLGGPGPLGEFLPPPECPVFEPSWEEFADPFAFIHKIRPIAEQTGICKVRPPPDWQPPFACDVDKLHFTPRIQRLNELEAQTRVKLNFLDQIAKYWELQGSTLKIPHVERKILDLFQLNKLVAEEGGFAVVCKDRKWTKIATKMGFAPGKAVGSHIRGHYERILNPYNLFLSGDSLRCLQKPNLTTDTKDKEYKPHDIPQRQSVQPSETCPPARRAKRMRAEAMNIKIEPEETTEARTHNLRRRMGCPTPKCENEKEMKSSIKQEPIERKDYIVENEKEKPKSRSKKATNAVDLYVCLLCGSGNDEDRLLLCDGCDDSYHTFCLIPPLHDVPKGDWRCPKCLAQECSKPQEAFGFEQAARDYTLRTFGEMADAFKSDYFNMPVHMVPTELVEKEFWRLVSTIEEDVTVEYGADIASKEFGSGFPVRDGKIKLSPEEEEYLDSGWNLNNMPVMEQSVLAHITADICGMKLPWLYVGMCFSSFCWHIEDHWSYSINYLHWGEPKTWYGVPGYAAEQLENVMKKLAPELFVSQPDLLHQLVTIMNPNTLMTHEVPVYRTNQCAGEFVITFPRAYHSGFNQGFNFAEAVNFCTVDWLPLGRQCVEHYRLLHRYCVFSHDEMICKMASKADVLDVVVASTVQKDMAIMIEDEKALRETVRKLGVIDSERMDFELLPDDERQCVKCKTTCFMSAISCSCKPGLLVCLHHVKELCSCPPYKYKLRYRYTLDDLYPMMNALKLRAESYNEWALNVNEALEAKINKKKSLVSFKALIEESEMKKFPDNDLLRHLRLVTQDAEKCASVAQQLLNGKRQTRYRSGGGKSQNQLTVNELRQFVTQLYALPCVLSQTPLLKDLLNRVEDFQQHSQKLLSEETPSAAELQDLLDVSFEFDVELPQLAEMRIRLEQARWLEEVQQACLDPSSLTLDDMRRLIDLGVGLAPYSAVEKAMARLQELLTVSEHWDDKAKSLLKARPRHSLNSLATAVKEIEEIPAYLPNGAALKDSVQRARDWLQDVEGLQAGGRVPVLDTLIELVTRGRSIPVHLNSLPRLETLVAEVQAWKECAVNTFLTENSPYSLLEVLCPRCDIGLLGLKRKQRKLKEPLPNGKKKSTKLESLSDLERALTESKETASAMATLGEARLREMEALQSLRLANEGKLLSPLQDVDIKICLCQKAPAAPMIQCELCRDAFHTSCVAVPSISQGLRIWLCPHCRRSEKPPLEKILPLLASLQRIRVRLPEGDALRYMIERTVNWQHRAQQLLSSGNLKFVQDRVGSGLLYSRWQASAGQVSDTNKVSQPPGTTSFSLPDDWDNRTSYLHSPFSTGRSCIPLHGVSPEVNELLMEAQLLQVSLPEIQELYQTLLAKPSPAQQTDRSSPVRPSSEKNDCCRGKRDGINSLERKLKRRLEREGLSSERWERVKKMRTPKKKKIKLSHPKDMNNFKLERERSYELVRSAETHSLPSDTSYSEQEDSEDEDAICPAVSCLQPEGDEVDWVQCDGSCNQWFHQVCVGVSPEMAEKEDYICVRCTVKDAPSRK
Assay: AlphaScreen in vitro demethylase assay
Format: biochemical
Conditions: AlphaScreen; IC50 ± SD (number of replicates); read-out: KDM5B IC50, in vitro
Reported endpoint: IC50

CCN(CCN(C)C)C(=O)CNCc1cc(C(=O)O)ccn1 [KDOAM-20] | 0.007 µM
O=c1[nH]cnc2c(-n3cc(CCN4CCC(c5cccc(Cl)c5)CC4)cn3)cccc12 [CCT366293] | > 10 µM
CCN(CCN(C)C)C(=O)CNCc1cncc(C(N)=O)c1 [KDOAM-32] | > 10 µM
CCOC(=O)c1ccnc(CNCC(=O)N(CC)CCN(C)C)c1 [KDOAM-21] | 0.094 µM
Clc1ccc(N/N=C(/c2ccccc2)c2ccccn2)nc1 [JIB-04 Z] | 7.01 µM

###

Target: KDM2A (Homo sapiens)
Sequence (Q9Y2K7 1-1162): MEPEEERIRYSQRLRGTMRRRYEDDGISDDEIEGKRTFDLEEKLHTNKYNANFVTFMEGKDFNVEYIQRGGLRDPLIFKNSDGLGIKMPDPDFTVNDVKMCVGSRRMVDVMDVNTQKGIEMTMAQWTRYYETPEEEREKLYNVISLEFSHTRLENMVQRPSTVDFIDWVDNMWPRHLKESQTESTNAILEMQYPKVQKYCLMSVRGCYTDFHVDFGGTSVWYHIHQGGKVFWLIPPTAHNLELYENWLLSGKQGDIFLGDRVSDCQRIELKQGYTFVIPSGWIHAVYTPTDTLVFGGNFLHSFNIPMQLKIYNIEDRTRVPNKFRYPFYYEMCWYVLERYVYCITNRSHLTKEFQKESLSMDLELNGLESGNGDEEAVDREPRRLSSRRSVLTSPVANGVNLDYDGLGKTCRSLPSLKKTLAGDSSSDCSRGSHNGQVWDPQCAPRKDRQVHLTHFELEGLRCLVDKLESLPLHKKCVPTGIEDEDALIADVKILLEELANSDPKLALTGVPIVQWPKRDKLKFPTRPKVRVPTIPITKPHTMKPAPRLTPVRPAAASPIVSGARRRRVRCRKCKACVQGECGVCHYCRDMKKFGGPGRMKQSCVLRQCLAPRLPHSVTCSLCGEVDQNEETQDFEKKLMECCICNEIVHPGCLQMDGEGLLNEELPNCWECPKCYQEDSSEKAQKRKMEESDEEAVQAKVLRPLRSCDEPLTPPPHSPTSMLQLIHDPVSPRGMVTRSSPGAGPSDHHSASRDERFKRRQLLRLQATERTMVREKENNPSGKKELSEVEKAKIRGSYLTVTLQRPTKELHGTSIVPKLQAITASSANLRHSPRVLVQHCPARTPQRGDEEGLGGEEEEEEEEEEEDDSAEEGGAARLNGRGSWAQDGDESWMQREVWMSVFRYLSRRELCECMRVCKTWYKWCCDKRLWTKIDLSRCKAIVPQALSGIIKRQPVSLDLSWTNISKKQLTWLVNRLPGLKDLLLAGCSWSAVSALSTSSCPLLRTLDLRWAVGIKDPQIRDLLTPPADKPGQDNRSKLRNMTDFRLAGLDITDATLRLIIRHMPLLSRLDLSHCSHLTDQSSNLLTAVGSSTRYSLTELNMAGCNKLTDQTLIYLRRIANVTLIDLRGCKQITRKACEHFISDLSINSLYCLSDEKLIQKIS
Assay: AlphaScreen in vitro demethylase assay
Format: biochemical
Conditions: IC50 ± SD (number of replicates)
pIC50: −log10 of the molar value.
Each entry below lists one item and its recorded pIC50 value.
Reported endpoint: pIC50

CCN(CCN(C)C)C(=O)CNCc1cc(C(=O)O)ccn1 [KDOAM-20] | 5.66
CCOC(=O)c1ccnc(CNCC(=O)N(CC)CCN(C)C)c1 [KDOAM-21] | 4.72
